Data origin, for the record: the Immune Epitope Database (IEDB)

subject of test: HLA-B*58:01
experimental details: IEDB peptide-MHC binding, purified MHC/competitive/fluorescence; filed as Kd, often an IC50 or EC50 that approximates it; bounds were set here for any values at or beyond the usual limits of such assays
study conditions: source organism: Pseudomonas aeruginosa UCBPP-PA14
pKd: −log10 of the molar value.
endpoint label: pKd

Write down the reported pKd of FLDDASNSA , test system: HLA-B*58:01.
≤ 4.70

---

subject of test: HLA-B*57:01
experimental details: IEDB peptide-MHC binding, purified MHC/direct/fluorescence; filed as Kd, often an IC50 or EC50 that approximates it; bounds were set here for any values at or beyond the usual limits of such assays
study conditions: source organism: Giardia lamblia ATCC 50803
endpoint label: pKd
Kindly note that pKd refers to -log10 of the concentration in mol/L and answer with the value alone.

# input sequence: RAIREYFQF ; wanted: its pKd
7.32
